Target: Proteasomal ubiquitin receptor ADRM1 (Homo sapiens, UniProt Q16186)
Sequence (Q16186 whole entry): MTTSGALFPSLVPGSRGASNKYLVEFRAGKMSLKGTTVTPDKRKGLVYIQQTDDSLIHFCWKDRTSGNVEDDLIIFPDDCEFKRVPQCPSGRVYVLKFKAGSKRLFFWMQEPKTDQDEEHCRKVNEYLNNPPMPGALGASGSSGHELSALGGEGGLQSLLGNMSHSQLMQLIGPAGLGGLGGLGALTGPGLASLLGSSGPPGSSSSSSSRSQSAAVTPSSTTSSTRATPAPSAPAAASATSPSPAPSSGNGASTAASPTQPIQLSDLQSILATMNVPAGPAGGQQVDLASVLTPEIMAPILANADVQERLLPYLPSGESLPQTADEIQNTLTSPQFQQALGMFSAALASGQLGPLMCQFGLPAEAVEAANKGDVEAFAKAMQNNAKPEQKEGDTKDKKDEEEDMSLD
Test: Isothermal Titration Calorimetry Experiments
Below is a list of entries, each paired with its recorded Kd value.

INSERT INTO assay_data (compound, target_or_system, parameter, readout_value) VALUES
  ('N#C/C(=C\c1cccc(NC(=O)c2ccccc2Cl)c1)C(=O)Nc1ccccc1C(=O)O [US20240317732, Compound XL23]', 'Proteasomal ubiquitin receptor ADRM1 (Homo sapiens, UniProt Q16186)', 'Kd', '3.88 µM');

Noted for N#CC(=Cc1cccc(NC(=O)c2ccc(NCC(=O)O)cc2)c1)C(=O)Nc1ccccc1C(=O)O [US20240317732, Compound XL25] : its Kd reads 4.12 µM
